# TARGET_OF_ASSAY: Full length Human HDAC6 (Homo sapiens)
# MEASUREMENT_PARAMETERS: ratio of HDAC8 IC50/HDAC6 IC50; Table 1, number
Give Selectivity (6 v 8) (fold) for every item shown.
Answers are plain numbers, in fold.

• O=C(NO)c1ccc2c(c1)CCN1CCCC[C@H]21 (single isomer, unassigned) = 3.6
• O=C(NO)c1cc(F)c2c(c1)CCN(C1CC3(COC3)C1)C2 = 461.1
• O=C(NO)c1ccc(CN2C3CCCC2COC3)c(F)c1 = 35.5
• CN1CC2CCC1CN2Cc1ccc(C(=O)NO)cc1F (stereo not drawn) = 10.7
• O=C(NO)c1ccc(CN2CCC3(CCCCC3)CC2)c(F)c1 = 24.9

Consider the following items and state reported Selectivity (6 v 8) (fold) for each.
1. O=C(NO)c1ccc(CN2CCC3(CC2)C2CC4CC(C2)CC3C4)c(F)c1
2. CN1Cc2cc(C(=O)NO)ccc2[C@@H]2CCCN21 (single isomer, unassigned)
3. O=C(NO)c1ccc2c(c1)C[C@H]1CCCN1C2 (single isomer, unassigned)
4. O=C(NO)c1ccc2c(c1)CN1CCC[C@H]21 (single isomer, unassigned)

# output
[41.9, 1.8, 14.5, 2.3]

---

Give half-life at 1 μM for every item shown.
# MEASUREMENT_DESCRIPTION: Metabolic stability in liver microsomes: Mouse BL6
# Format: in vitro ADME
# MEASUREMENT_PARAMETERS: 1 μM compound, 0.3 mg/mL protein, NADPH, 37° C., read-out: Mouse BL6 Liver Microsome Stability Half-life
Give bare numbers, in h.

* O=C(NO)c1ccc(CN2C3CCCC2COC3)c(F)c1 | 4.83

Turning now to a further record.
# input half-life at 1 μM for `O=C(NO)c1ccc(CN2CCc3c([nH]c4ccccc34)C2)c(F)c1` ?
# output 1.31

---

Give pIC50 for every item shown.
# TARGET_OF_ASSAY: UniProt Q969S8
# Sequence (Q969S8 1-669): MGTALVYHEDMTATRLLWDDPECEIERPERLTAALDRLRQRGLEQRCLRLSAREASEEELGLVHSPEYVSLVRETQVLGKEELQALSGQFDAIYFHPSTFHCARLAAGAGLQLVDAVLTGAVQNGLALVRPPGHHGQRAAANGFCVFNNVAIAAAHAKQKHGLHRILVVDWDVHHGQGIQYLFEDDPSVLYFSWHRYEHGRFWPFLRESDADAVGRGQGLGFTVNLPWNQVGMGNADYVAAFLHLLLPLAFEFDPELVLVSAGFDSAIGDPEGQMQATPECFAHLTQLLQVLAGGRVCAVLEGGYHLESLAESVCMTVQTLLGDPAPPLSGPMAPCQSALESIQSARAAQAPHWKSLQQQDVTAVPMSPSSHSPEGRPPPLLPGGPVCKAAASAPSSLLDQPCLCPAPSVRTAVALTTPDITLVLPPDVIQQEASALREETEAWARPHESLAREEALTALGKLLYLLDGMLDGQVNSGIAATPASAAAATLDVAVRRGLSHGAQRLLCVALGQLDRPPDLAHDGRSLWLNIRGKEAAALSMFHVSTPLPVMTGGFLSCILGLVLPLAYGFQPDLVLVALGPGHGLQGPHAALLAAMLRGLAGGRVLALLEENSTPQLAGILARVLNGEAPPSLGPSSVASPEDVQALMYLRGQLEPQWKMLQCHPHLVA
pIC50: −log10 of the molar value.

Some molecules with recorded pIC50:
- O=C(NO)c1ccc(CN2C[C@@H]3CC[C@H]2CO3)c(F)c1 (single isomer, unassigned) [compound 172]: < 4.00
- O=C(NO)c1cc(F)c2c(c1)CC1CCCN1C2 (single isomer, unassigned) [compound 120]: < 4.00

Consider the following items and state reported pIC50 for each.
1. O=C(NO)c1cc(F)c2c(c1)CCN(C1COC1)C2 [compound 24]
2. O=C(NO)c1cc(F)c2c(c1)C[C@@H]1CC3(CCCCC3)CN1C2 (single isomer, unassigned) [compound 136]
3. O=C(NO)c1ccc(CN2C3CCCC2CCC3)c(F)c1 [compound 60]
4. O=C(NO)c1ccc(CN2CCC3(CCCCC3)CC2)c(F)c1 [compound 74]
5. O=C(NO)c1ccc(CN2CC3CCC(C2)O3)c(F)c1 [compound 53]
6. O=C(NO)c1cc(F)c(CN2CCC3(CCCCC3)C2)cc1F [compound 67]

# output
1: < 4.00; 2: < 4.00; 3: < 4.00; 4: 4.00 to 5.00; 5: 5.00 to 6.00; 6: 4.00 to 5.00

# input pIC50 for O=C(NO)c1ccc(CN2CCC3(CCCCC3)C2)c(F)c1 [compound 75] ?
# output 4.00 to 5.00

---

# MEASUREMENT_DESCRIPTION: Metabolic stability in liver microsomes: Mouse CD1
# Assay type: in vitro ADME
# MEASUREMENT_PARAMETERS: 1 μM compound, 0.3 mg/mL protein, NADPH, 37° C., read-out: Mouse CD1 Liver Microsome Stability Half-life
READOUT_KIND: half-life at 1 μM (min)
Give bare numbers, in min.

# input half-life at 1 μM for O=C(NO)c1cc(F)c2c(c1)CN(CC13CC4CC(CC(C4)C1)C3)C2 [compound 33] ?
# output 7.1

---

Give IC50 for every item shown.
# TARGET_OF_ASSAY: Full length Human HDAC6 (Homo sapiens, UniProt Q9UBN7)
# Sequence (Q9UBN7 whole entry): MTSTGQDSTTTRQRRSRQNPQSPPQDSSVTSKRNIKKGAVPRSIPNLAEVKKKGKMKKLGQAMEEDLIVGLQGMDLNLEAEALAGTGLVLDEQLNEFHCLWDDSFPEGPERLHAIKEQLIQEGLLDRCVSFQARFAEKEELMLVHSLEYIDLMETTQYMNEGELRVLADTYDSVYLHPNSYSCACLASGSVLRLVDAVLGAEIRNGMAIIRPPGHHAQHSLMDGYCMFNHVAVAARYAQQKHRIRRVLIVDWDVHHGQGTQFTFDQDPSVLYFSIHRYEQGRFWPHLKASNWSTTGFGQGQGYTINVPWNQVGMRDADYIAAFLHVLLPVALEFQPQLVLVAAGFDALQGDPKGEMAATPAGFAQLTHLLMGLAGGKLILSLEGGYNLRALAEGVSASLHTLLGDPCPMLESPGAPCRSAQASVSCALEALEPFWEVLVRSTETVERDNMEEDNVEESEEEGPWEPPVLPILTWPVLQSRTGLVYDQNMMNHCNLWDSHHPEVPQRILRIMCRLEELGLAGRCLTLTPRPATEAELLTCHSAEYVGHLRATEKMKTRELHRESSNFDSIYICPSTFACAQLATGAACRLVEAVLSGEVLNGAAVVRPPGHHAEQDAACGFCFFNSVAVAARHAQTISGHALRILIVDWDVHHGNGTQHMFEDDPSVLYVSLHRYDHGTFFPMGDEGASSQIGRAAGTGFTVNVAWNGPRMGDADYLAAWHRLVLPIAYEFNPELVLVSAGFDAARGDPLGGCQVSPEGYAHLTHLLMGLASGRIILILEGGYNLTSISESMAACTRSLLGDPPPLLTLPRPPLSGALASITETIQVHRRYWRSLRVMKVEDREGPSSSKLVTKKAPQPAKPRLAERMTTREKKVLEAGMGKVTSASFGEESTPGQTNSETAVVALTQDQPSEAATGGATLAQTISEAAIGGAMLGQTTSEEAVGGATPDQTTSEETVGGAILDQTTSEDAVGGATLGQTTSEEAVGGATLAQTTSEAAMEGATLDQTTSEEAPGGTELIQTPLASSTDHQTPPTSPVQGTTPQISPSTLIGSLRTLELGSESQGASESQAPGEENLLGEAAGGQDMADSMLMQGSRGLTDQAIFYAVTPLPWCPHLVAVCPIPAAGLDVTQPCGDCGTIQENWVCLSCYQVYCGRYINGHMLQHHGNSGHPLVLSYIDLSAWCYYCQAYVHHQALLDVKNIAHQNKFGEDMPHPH
# MEASUREMENT_PARAMETERS: read-out: In vitro enzymatic IC50, HDAC Paralog 6; Table 2

Some compounds with recorded IC50:
- O=C(NO)c1cc(F)c2c(c1)CCN(C1CC3(CCCCC3)C1)C2: 1 to 100 nM
- O=C(NO)c1ccc(CN2C3CCCC2CC3)c(F)c1: 100 to 1000 nM
- O=C(NO)c1ccc(CN2C3CCC2COC3)c(F)c1: 1 to 100 nM

Consider the following items and state reported IC50 for each.
1. O=C(NO)c1cc(F)c2c(c1)CCN(C1CC3(COC3)C1)C2
2. CC(C)(C)CN1CCc2cc(C(=O)NO)cc(F)c2C1

# output
1: 1 to 100 nM; 2: 1 to 100 nM

---

# MEASUREMENT_DESCRIPTION: Cell viability in primary rat dorsal root ganglia (DRG)
# Assay type: cell-based
READOUT_KIND: CC50 at 72 h (nM)
Answers are plain numbers, in nM.

• O=C(CCCCCCNC(=O)c1cnc(N(c2ccccc2)c2ccccc2)nc1)NO = 5200

Turning now to a further record.
# input CC50 at 72 h for `O=C(CCCCCCC(=O)Nc1ccccc1)NO` ?
# output 390

---

# TARGET_OF_ASSAY: Full length Human HDAC6 (Homo sapiens, UniProt Q9UBN7)
# MEASUREMENT_PARAMETERS: ratio of HDAC8 IC50/HDAC6 IC50; Table 1, range class
READOUT_KIND: Selectivity (6 v 8) (fold)

- O=C(NO)c1ccc(CN2CCC3(CCCC3)C2)c(F)c1 [compound 73]: III (III: >10-100)
- O=C(NO)c1ccc(CN2CCC3(CCCCC3)CC2)c(F)c1 [compound 74]: III (III: >10-100)
- O=C(NO)c1ccc(CN2CCCOCC2)c(F)c1 [compound 47]: III (III: >10-100)
- CC[C@H](c1ccccc1)N1CCc2cc(C(=O)NO)cc(F)c2C1 (single isomer, unassigned) [compound 30]: IV (IV: >100-1000)
- O=C(NO)c1cc(F)c2c(c1)C[C@H]1COCCN1C2 (single isomer, unassigned) [compound 130]: V (V: >1000)
- CC1(C)C[C@H]2Cc3cc(C(=O)NO)cc(F)c3CN2C1 (single isomer, unassigned) [compound 125]: III (III: >10-100)
- CC[C@H]1CCCN1Cc1ccc(C(=O)NO)cc1F (single isomer, unassigned) [compound 49]: III (III: >10-100)
- O=C(NO)c1cc(F)c2c(c1)CN(Cc1ccccc1)CC2 [compound 114]: III (III: >10-100)

Consider the following items and state reported Selectivity (6 v 8) (fold) for each.
1. O=C(NO)c1ccc2c(c1)CCN1CCC[C@@H]21 (single isomer, unassigned) [compound 149]
2. O=C(NO)c1ccc2c(c1)CCN1CCC[C@H]21 (single isomer, unassigned) [compound 148]
3. CN1CC2CCC(C1)N2Cc1ccc(C(=O)NO)cc1F [compound 56]

# output
["II (II: >1-10)", "II (II: >1-10)", "III (III: >10-100)"]

---

# TARGET_OF_ASSAY: Full length Human HDAC8 (Homo sapiens)
# Sequence (Q9BY41 1-377): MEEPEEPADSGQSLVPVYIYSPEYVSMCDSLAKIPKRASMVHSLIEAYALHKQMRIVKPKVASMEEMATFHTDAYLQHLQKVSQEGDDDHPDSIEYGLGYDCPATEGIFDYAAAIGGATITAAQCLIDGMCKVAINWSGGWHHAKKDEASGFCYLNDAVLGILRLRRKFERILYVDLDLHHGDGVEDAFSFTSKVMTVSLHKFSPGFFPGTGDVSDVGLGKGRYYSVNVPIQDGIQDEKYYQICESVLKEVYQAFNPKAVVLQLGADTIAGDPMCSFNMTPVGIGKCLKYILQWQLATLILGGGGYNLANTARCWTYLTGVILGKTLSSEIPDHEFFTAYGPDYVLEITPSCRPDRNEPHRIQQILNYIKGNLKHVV
READOUT_KIND: IC50

Some compounds with recorded IC50:
- O=C(NO)c1cc(F)c2c(c1)CCN(C1CCC13CCCCC3)C2 (stereo not drawn): 10000 to 100000 nM
- O=C(NO)c1cc(F)c2c(c1)CCN(C1CC3(CCCCC3)C1)C2: 10000 to 100000 nM
- O=C(NO)c1ccc(CN2CCCOCC2)c(F)c1: 100 to 1000 nM
- O=C(NO)c1ccc(CN2CCC3(CCCC3)C2)c(F)c1: 1000 to 10000 nM
- O=C(NO)c1ccc2c(c1)C[C@H]1COCC(=O)N1C2 (single isomer, unassigned): 1000 to 10000 nM

Consider the following items and state reported IC50 for each.
1. O=C(NO)c1ccc(CN2CCC3(CC2)C2CC4CC(C2)CC3C4)c(F)c1
2. O=C(NO)c1cc(F)c2c(c1)CCN1CCCC[C@@H]21 (single isomer, unassigned)
3. O=C(NO)c1ccc(CN2CC3(COC3)C2)c(F)c1
4. O=C(NO)c1cc(F)c2c(c1)CCN(C1CCC1)C2
5. O=C(NO)c1ccc2c(c1)CN1CCC[C@@H]21 (single isomer, unassigned)
6. O=C(NO)c1cc(F)c2c(c1)CN(Cc1ccccc1)CC2
7. O=C(NO)c1cc(F)c2c(c1)CCN(CC1COC1)C2

# output
["1000 to 10000 nM", "1000 to 10000 nM", "100 to 1000 nM", "10000 to 100000 nM", "1000 to 10000 nM", "100 to 1000 nM", "10000 to 100000 nM"]

Consider the following items and state reported IC50 for each.
1. CN1CC2CCC1CN2Cc1ccc(C(=O)NO)cc1F (stereo not drawn)
2. O=C(NO)c1ccc(CN2CC3(CCOCC3)C2)c(F)c1
3. CC1(C)C[C@@H]2Cc3c(F)cc(C(=O)NO)cc3CN2C1 (single isomer, unassigned)
4. Cc1cccc(C)c1CN1CCc2cc(C(=O)NO)cc(F)c2C1
5. CN1CC2CCC(C1)N2Cc1ccc(C(=O)NO)cc1F
6. O=C(NO)c1cc(F)c(CN2C3CCC2COC3)cc1F

# output
100 to 1000 nM
1000 to 10000 nM
1000 to 10000 nM
1000 to 10000 nM
100 to 1000 nM
1000 to 10000 nM
